Origin of the recorded values: patent US20190064177A1

- System: diaphorase
- PROCEDURE_TEXT: fluorescently labeled diaphorase binding to peptide array with or without excess FAD
- ASSAY_CONDITIONS: ratio without/with FAD calculated from measured binding values, 1 micromolar diaphorase
Provide the recorded Meas. ratio for the entries that follow.
Numbers only.

Illustrative cases are given below, each with its answer.
| SEQUENCE_TEXT | Meas. ratio |
| --- | --- |
| RLQYLFKSDGSG [array peptide with C-terminal GSG linker] | 2.94 |
| ARWQQYKFGGSG [array peptide with C-terminal GSG linker] | 2.18 |
| YRRFPYFPGGSG [array peptide with C-terminal GSG linker] | 1.60 |
| PRYQNFGGGSG [array peptide with C-terminal GSG linker] | 2.81 |
| SGVLQFFGGSG [array peptide with C-terminal GSG linker] | 0.70 |

Look up Meas. ratio for the entries below, preserving their order.
1. WRPFWKNLGGSG [array peptide with C-terminal GSG linker]
2. RYYPAFSGGSG [array peptide with C-terminal GSG linker]
3. KHSFQKELGGSG [array peptide with C-terminal GSG linker]
4. ALDKLSGLWKHVG
5. RYNLYKPSDGSG [array peptide with C-terminal GSG linker]
6. AFYGLELGGSG [array peptide with C-terminal GSG linker]
7. YVWGLELSGGSG [array peptide with C-terminal GSG linker]

Result:
[2.18, 2.91, 2.87, 0.69, 2.87, 0.54, 0.56]

###

- System: diaphorase
- PROCEDURE_TEXT: fluorescently labeled diaphorase binding to peptide array with or without excess FAD
- ASSAY_CONDITIONS: 1 micromolar labeled diaphorase, excess FAD present; 65535 is detector saturation
OBSERVED_PROPERTY: 1 microM FAD (array fluorescence of bound diaphorase)
One number for each entry.

Illustrative cases are given below, each with its answer.
| SEQUENCE_TEXT | TARGET_OR_SYSTEM | NUMERIC_VALUE |
| --- | --- | --- |
| RLYPQGYGGSG [array peptide with C-terminal GSG linker] | diaphorase | 4541.5 |
| RYNLYKPSDGSG [array peptide with C-terminal GSG linker] | diaphorase | 1245.75 |
| RQAYLFGGSG [array peptide with C-terminal GSG linker] | diaphorase | 4477 |
| RFGQNLPLGGSG [array peptide with C-terminal GSG linker] | diaphorase | 2103.25 |
| YSVDYWYQVDGSG [array peptide with C-terminal GSG linker] | diaphorase | 10415 |

Look up 1 microM FAD (array fluorescence of bound diaphorase) for the entries below, preserving their order.
1. YVWGLELSGGSG [array peptide with C-terminal GSG linker]
2. KHSFQKELGGSG [array peptide with C-terminal GSG linker]
3. KPLAVQKVGSG (KPLAVQKVFGSG) [array peptide with C-terminal GSG linker]
4. YRNAAWFSGGSG [array peptide with C-terminal GSG linker]

Result:
1. 4688.5
2. 727.5
3. 3707.5
4. 2926

###

Provide the recorded 10 microM no FAD (array fluorescence of bound diaphorase) for the entries that follow.
- Tested on: diaphorase
- PROCEDURE_TEXT: fluorescently labeled diaphorase binding to peptide array with or without excess FAD
- ASSAY_CONDITIONS: 10 micromolar labeled diaphorase, no FAD; 65535 is detector saturation

Illustrative cases are given below, each with its answer.
| SEQUENCE_TEXT | TARGET_OR_SYSTEM | RESULT |
| --- | --- | --- |
| RYAYFQHLGGSG [array peptide with C-terminal GSG linker] | diaphorase | 65535 |
| RWQYYNQKFGSG [array peptide with C-terminal GSG linker] | diaphorase | 65535 |

Look up 10 microM no FAD (array fluorescence of bound diaphorase) for the entries below, preserving their order.
1. FQFGKVVSDGSG [array peptide with C-terminal GSG linker]
2. VKDGNKHYWRVSGSG (VKDGANKHYWRVSGSG) [array peptide with C-terminal GSG linker]

Result:
[12735.5, 20355.75]

Task: Which 10 microM no FAD (array fluorescence of bound diaphorase) value belongs to RWKYQKFNGGSG [array peptide with C-terminal GSG linker] ?
Result: 61301.5
